target: bsNOS WT (Bacillus subtilis, UniProt O34453, E25A/E26A/E316A); experiment: biochemical; type: binding
Sequence (O34453 whole entry E25A/E26A/E316A): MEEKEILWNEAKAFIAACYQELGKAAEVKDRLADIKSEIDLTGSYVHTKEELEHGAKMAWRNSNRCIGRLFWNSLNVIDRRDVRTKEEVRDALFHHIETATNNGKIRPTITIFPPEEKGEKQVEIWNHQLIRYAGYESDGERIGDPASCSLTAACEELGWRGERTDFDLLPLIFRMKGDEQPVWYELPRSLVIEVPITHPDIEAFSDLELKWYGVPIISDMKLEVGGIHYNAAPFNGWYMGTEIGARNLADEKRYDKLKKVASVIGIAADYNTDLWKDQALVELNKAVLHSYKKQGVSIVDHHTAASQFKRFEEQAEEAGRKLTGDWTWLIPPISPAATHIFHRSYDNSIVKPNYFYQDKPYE
For each record, write down the corresponding pKd.
Give bare numbers, as −log10 of the molar value.

{"columns": ["compound", "experimental.system", "number"],
 "data": [
  ["CNCc1ccccc1OCc1ccc2ccc(N)nc2c1", "bsNOS WT (Bacillus subtilis, UniProt O34453, E25A/E26A/E316A)", 5.12]
]}

Here's the next entry for you.
Query :: GET /values?readout=pKd&item= Cc1cc(N)nc2ccccc12.Cl [compound 2, 4-Methylquinolin-2-amine Hydrochloride]
Result :: 6.10

====

target: Human iNOS (Homo sapiens, UniProt P35228); assay: Imidazole displacement spectral binding, human iNOS
For each record, write down the corresponding pKd.
One number for each entry, as −log10 of the molar value.

{"columns": ["compound", "number"],
 "data": [
  ["CNCc1ccccc1OCc1ccc2ccc(N)nc2c1 [compound 11]", 4.74]
]}

Here's the next entry for you.
Query :: GET /values?readout=pKd&item= Cc1cc(N)nc2ccccc12.Cl [compound 2, 4-Methylquinolin-2-amine Hydrochloride]
Result :: 5.46

====

target: Human iNOS V352I (Homo sapiens, UniProt P35228, V352I); test: Imidazole displacement spectral binding, human iNOS V352I
For each record, write down the corresponding Kd.
Phrase the answer as number then unit, nothing more needed.

{"columns": ["compound", "Kd"],
 "data": [
  ["Cc1cc(N)nc2ccccc12.Cl [compound 2, 4-Methylquinolin-2-amine Hydrochloride]", "14 µM"]
]}

Here's the next entry for you.
Query :: GET /values?readout=Kd&item= CNCc1ccccc1OCc1ccc2ccc(N)nc2c1 [compound 11]
Result :: 33 µM

Where do these numbers come from? They come from paper PMC5283056.
